biological target: human recombinant H-PGDS (Homo sapiens, UniProt O60760); test: Fluorescence intensity h-PGDS TBA enzyme assay; format: biochemical; conditions: Examples up to 622 (and 3a, 3b)
Sequence (O60760 whole entry): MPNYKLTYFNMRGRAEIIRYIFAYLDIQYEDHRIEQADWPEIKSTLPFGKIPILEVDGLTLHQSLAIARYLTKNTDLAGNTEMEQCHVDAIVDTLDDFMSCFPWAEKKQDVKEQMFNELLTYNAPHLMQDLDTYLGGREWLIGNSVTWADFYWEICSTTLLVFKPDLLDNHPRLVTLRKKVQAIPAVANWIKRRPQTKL
Quantity: pIC50
Numbers only, as −log10 of the molar value.

Molecule | Tested target | pIC50
CN(CC1CC1)C(=O)c1ccc(N2CCC(NC(=O)c3ccc(-c4cccc(F)c4)nc3)CC2)nc1 | human recombinant H-PGDS (Homo sapiens, UniProt O60760) | 8.91
O=C(NC1CCN(Cc2cccn3c(Br)cnc23)CC1)c1ccc(-c2cccc(F)c2)nc1 | human recombinant H-PGDS (Homo sapiens, UniProt O60760) | 9.31
O=C(NC1CCN(CC2CCc3nc(CC4CC4)ncc3C2)CC1)c1ccc(-c2cccc(F)c2)nc1 (stereo not shown) | human recombinant H-PGDS (Homo sapiens, UniProt O60760) | 8.99
O=C(NC1CCN(Cc2c[nH]c(=O)[nH]c2=O)CC1)c1ccc(-c2cccc(F)c2)nc1 | human recombinant H-PGDS (Homo sapiens, UniProt O60760) | 8.77
N#Cc1cnc(N2CCC(NC(=O)c3ccc(-c4cccc(F)c4)nc3)CC2)nc1N | human recombinant H-PGDS (Homo sapiens, UniProt O60760) | 9.18

# batch: return pIC50 for each of the 2 molecules below
1. CCCn1cc(CN2CCC(NC(=O)c3ccc(-c4cccc(F)c4)nc3)CC2)cn1
2. COc1cc(CN2CCC(NC(=O)c3ccc(-c4cccc(F)c4)nc3)CC2)cc(OC)c1

# output
[8.66, 8.90]

# batch: return pIC50 for each of the 3 molecules below
1. CCC(CO)n1cnc2c(N3CCC(NC(=O)c4ccc(-c5cccc(F)c5)nc4)CC3)ncnc21 (single isomer, unassigned) [Example 581]
2. O=C(NC1CCN(Cc2nccs2)CC1)c1ccc(-c2cccc(F)c2)nc1
3. O=C(NC1CCN(Cc2ccc3cccc(F)c3n2)CC1)c1ccc(-c2cccc(F)c2)nc1

# output
[9.16, 9.44, 8.92]

# batch: return pIC50 for each of the 6 molecules below
1. COCCNC(=O)c1ccc(N2CCC(NC(=O)c3ccc(-c4cccc(F)c4)nc3)CC2)nc1
2. CCN1CCCC1CNC(=O)c1ccc(N2CCC(NC(=O)c3ccc(-c4cccc(F)c4)nc3)CC2)nn1 (stereo not shown)
3. O=C(NC1CCN(Cc2ccc(F)c(F)c2F)CC1)c1ccc(-c2cccc(F)c2)nc1
4. O=C(NC1CCNCC1c1ccc(F)cc1)c1ccc(-c2cccc(F)c2)nc1 (stereo not shown)
5. COc1cccc(-c2csc(CN3CCC(NC(=O)c4ccc(-c5cccc(F)c5)nc4)CC3)n2)c1
6. COc1ccc(-c2cc(N3CCC(NC(=O)c4ccc(-c5cccc(F)c5)nc4)CC3)ncn2)cc1OC

# output
[9.58, 9.02, 9.24, 7.83, 8.65, 8.78]

----------
biological target: human recombinant H-PGDS (Homo sapiens); experiment: Fluorescence intensity h-PGDS TBA enzyme assay; format: biochemical; conditions: Examples up to 622 (and 3a, 3b)
Would you mind telling me the reported pIC50 of each entry?
One number for each entry, as −log10 of the molar value.

# annotated cases, reported pIC50 shown
Compound | Reported value
Nc1cc(N2CCC(NC(=O)c3ccc(-c4cccc(F)c4)nc3)CC2)ncn1 | 9.28
O=C(NC1CCN(Cc2c[nH]nc2-c2ccc(F)cc2)CC1)c1ccc(-c2cccc(F)c2)nc1 | 8.59
O=C(NC1CCN(Cc2ccccc2Cl)CC1)c1ccc(-c2cccc(F)c2)nc1 | 9.51
CN(CCCN1CCC(NC(=O)c2ccc(-c3cccc(F)c3)nc2)CC1)C(=O)OC(C)(C)C | 8.46
Cc1nc(N)c2nc(N3CCC(NC(=O)c4ccc(-c5cccc(F)c5)nc4)CC3)cnc2n1 | 9.12

# batch: return pIC50 for each of the 5 compounds below
1. Cn1cc(Br)c(CN2CCC(NC(=O)c3ccc(-c4cccc(F)c4)nc3)CC2)n1
2. COc1ccc(CN2CCC(NC(=O)c3ccc(-c4cccc(F)c4)nc3)CC2)c(OC)c1
3. CC(C)(C)OC(=O)NC1(CN2CCC(NC(=O)c3ccc(-c4cccc(F)c4)nc3)CC2)CCC1
4. COc1ccccc1C1(CN2CCC(NC(=O)c3ccc(-c4cccc(F)c4)nc3)CC2)CCOCC1
5. O=C(NC1CCN(c2ncc3c(n2)CCOC3)C1)c1ccc(-c2cccc(F)c2)nc1 (centres unmarked)

# output
[9.44, 8.62, 8.56, 8.82, 9.13]

# batch: return pIC50 for each of the 4 compounds below
1. COc1cccc(-c2ccc(C(=O)NC3CCN(C(C)C)CC3)cn2)c1
2. COc1ccc(C(C)N2CCC(NC(=O)c3ccc(-c4cccc(F)c4)nc3)CC2)c(OC)c1 (centres unmarked)
3. CN(C)CCCOc1ccc(CN2CCC(NC(=O)c3ccc(-c4cccc(F)c4)nc3)CC2)cc1
4. CC(C)(C)C(=O)N1CCC(NC(=O)c2ccc(-c3ccccc3)nc2)CC1

# output
6.00
8.49
8.26
9.45

# batch: return pIC50 for each of the 3 compounds below
1. COc1ccc(CN2CCC(NC(=O)c3ccc(-c4cccc(F)c4)nc3)CC2)cn1
2. O=C(NC1CCN(CC(F)(F)F)CC1)c1ccc(-c2cc(F)cc(F)c2)nc1
3. COc1ccc(F)cc1CN1CCC(NC(=O)c2ccc(-c3cccc(F)c3)nc2)CC1

# output
9.02
8.73
9.30
